Entries annotated with measured IC50
assay.target: NLRP3 inflammasome (Mus musculus)
Construct: endogenous in cells
Sequence (Q8R4B8 whole entry): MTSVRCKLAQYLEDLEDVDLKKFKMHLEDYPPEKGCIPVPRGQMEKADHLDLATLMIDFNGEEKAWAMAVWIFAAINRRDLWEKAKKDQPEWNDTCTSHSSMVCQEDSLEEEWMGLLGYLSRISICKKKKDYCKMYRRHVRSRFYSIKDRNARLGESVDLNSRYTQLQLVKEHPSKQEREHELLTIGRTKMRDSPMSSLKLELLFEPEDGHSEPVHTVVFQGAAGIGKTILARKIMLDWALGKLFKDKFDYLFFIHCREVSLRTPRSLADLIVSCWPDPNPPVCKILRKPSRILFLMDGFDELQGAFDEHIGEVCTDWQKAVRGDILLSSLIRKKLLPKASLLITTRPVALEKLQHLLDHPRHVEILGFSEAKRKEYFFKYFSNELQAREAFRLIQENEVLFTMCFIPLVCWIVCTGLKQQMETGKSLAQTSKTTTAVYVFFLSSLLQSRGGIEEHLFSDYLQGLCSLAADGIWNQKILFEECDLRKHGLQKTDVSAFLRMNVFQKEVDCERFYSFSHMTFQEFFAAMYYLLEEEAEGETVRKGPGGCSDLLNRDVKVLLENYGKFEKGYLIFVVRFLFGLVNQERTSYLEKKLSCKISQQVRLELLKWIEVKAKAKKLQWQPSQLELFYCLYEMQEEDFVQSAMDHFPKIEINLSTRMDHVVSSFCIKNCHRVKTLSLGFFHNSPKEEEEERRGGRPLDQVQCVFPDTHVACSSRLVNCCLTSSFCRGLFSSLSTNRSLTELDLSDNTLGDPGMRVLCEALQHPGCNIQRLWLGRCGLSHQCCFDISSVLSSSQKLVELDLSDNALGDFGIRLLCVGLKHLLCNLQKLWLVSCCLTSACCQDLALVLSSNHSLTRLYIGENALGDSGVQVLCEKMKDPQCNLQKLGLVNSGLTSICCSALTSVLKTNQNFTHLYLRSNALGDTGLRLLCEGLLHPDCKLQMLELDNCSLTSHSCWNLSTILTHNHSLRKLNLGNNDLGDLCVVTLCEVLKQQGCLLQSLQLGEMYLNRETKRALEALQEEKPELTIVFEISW
assay.details: Inhibition of LPS and ATP induced NLRP3 inflammasome activation in BMDMs (IL-1β level)
experimental.setup: read-out: IC50, inhibitory effect on activation of NLRP3 inflammasome

Some solved cases for reference:
- CCC(=O)O[C@]1(C)CC[C@@]23C[C@]2(C)CC[C@@H]2[C@H](OC(=O)[C@H]2CN(C)C)[C@H]31 [Compound 29]: 40 to 80 nM
- CN(C)C[C@@H]1C(=O)O[C@H]2[C@H]1CC[C@@]1(C)C[C@]13CC[C@@](C)(O)[C@H]23 [Compound 23]: 40 to 80 nM

// next entry
stdin: Query: IC50; subject: C=C1C(=O)O[C@@H]2[C@@H]3[C@]4(CC[C@@]3(C)F)C[C@]4(C)CC[C@@H]12 [Compound 5]
stdout: < 40 nM

----------
assay.details: Stability in artificial gastric juice environment (HPLC)
experimental.setup: 37° C.
Parameter: Non-degradation percentage at 16 h. Scope: all listed entries.
State just the number; it will be interpreted in %.

Worked cases, Non-degradation percentage at 16 h given:
* C=C1C(=O)O[C@@H]2[C@@H]3[C@]4(CC[C@@]3(C)OC(=O)CC)C[C@]4(C)CC[C@@H]12 | 97.85
* C=C1C(=O)O[C@@H]2[C@@H]3[C@]4(CC[C@@]3(C)OC)C[C@]4(C)CC[C@@H]12 | 95.58

--- query ---
stdin: Requested field: Non-degradation percentage at 16 h. Item: `C=C1C(=O)O[C@H]2[C@H]1CC[C@@]1(C)C[C@]13C[C@@H](O)[C@@](C)(OC)[C@H]23`
stdout: 99.87

----------
assay.details: Solubility test in water
Type: physicochemical
experimental.setup: thermodynamic from solid; deionized water, 37° C.
Tag: 1 if measured solubility is not below 40000 µg/mL, -1 if it is.

Example entries begin here.
• CN(C)C[C@@H]1C(=O)O[C@H]2[C@H]1CC[C@@]1(C)C[C@]13C[C@@H](O)[C@@](C)(O)[C@H]23 [Compound 26] = 1
• C=C1CC[C@H]2C(=C)CC[C@H]3C(=C)C(=O)O[C@@H]3[C@@H]12 [dehydrocostus lactone, reference compound] = 1
• C=C1C(=O)O[C@@H]2[C@@H]3[C@]4(CC[C@@]3(C)O)C[C@]4(C)CC[C@@H]12 [Compound 1] = -1

stdin: // inclusive: solubility at least 40000 µg/mL? input: CO[C@]1(C)[C@H](O)C[C@@]23C[C@]2(C)CC[C@@H]2[C@H](OC(=O)[C@H]2CN(C)C)[C@@H]13 [Compound 25]
stdout: 1

stdin: Param item: C=C1C(=O)O[C@@H]2[C@@H]3[C@]4(CC[C@@]3(C)OC)C[C@]4(C)CC[C@@H]12 [Compound 8]
stdout: -1

stdin: Follow-up item: CC1=CC[C@@]23C[C@]2(C)CC[C@@H]2[C@H](OC(=O)[C@H]2CN(C)C)[C@@H]13 [Compound 24]
stdout: 1

stdin: What about this compound? CN(C)C[C@@H]1C(=O)O[C@H]2[C@H]1CC[C@@]1(C)C[C@]13CC[C@@](C)(F)[C@H]23 [Compound 27]
stdout: 1

stdin: // same read-out, input: C=C1C(=O)O[C@@H]2C3=C(C)CC[C@]34C[C@]4(C)CC[C@@H]12 [Compound 6]
stdout: -1

stdin: One more compound: C=C1C(=O)O[C@@H]2[C@H]3C(C)=CC[C@]34C[C@]4(C)CC[C@@H]12 [Compound 2]
stdout: -1

stdin: Also, CC1=CC[C@@]23C[C@]2(C)CC[C@H]2[C@H](CN(C)C)C(=O)O[C@@H]2C13 (stereo partly drawn) [Compound 28] please.
stdout: 1

stdin: Request: CCC(=O)O[C@]1(C)CC[C@@]23C[C@]2(C)CC[C@@H]2[C@H](OC(=O)[C@H]2CN(C)C)[C@H]31 [Compound 29]
stdout: 1

stdin: Moving on to the next compound: C=C1C(=O)O[C@H]2[C@H]1CC[C@@]1(C)C[C@]13C[C@@H](O)[C@@](C)(OC)[C@H]23 [Compound 3]
stdout: -1

stdin: Same lookup for C=C1C(=O)O[C@@H]2[C@@H]3[C@]4(CC[C@@]3(C)OC(=O)CC)C[C@]4(C)CC[C@@H]12 [Compound 7] , please.
stdout: -1

stdin: Cool, now C=C1C(=O)O[C@@H]2[C@@H]3[C@]4(CC[C@@]3(C)F)C[C@]4(C)CC[C@@H]12 [Compound 5]
stdout: -1

stdin: For C=C1C(=O)O[C@H]2[C@H]1CC[C@@]1(C)C[C@]13C[C@@H](O)[C@@](C)(O)[C@H]23 [Compound 4] then?
stdout: -1

----------
Non-degradation percentage at 8 h for assorted compounds
assay.details: Stability in artificial gastric juice environment (HPLC)
experimental.setup: 37° C.
State just the number; it will be interpreted in %.

Example compounds with recorded Non-degradation percentage at 8 h:
- C=C1C(=O)O[C@@H]2[C@@H]3[C@]4(CC[C@@]3(C)F)C[C@]4(C)CC[C@@H]12 [Compound 5]: 99.91
- C=C1C(=O)O[C@H]2[C@H]1CC[C@@]1(C)C[C@]13C[C@@H](O)[C@@](C)(O)[C@H]23 [Compound 4]: 98.15

stdin: I am curious: what Non-degradation percentage at 8 h value has been reported for C=C1C(=O)O[C@@H]2[C@@H]3[C@]4(CC[C@@]3(C)OC(=O)CC)C[C@]4(C)CC[C@@H]12 [Compound 7] ?
stdout: 99.31

stdin: Same lookup for C=C1C(=O)O[C@H]2[C@H]1CC[C@@]1(C)C[C@]13C[C@@H](O)[C@@](C)(OC)[C@H]23 [Compound 3] , please.
stdout: 99.98

stdin: Now give it for C=C1CC[C@H]2C(=C)CC[C@H]3C(=C)C(=O)O[C@@H]3[C@@H]12 [dehydrocostus lactone, reference compound] too.
stdout: 68.91

stdin: Query C=C1C(=O)O[C@@H]2[C@H]3C(C)=CC[C@@]34O[C@@]4(C)CC[C@@H]12 [arglabin, reference compound] next
stdout: 50.14

stdin: Moving on to the next compound: C=C1C(=O)O[C@@H]2[C@H]3C(C)=CC[C@]34C[C@]4(C)CC[C@@H]12 [Compound 2]
stdout: 90.92

stdin: Entry to check: C=C1C(=O)O[C@@H]2C3=C(C)CC[C@]34C[C@]4(C)CC[C@@H]12 [Compound 6]
stdout: 99.89

stdin: // query: C=C1C(=O)O[C@@H]2[C@@H]3[C@]4(CC[C@@]3(C)O)C[C@]4(C)CC[C@@H]12 [Compound 1]
stdout: 99.08

stdin: Record: C=C1C(=O)O[C@@H]2[C@@H]3[C@]4(CC[C@@]3(C)OC)C[C@]4(C)CC[C@@H]12 [Compound 8]
stdout: 98.36

----------
List of Non-degradation percentage at 24 h values.
assay.details: Stability in artificial gastric juice environment (HPLC)
experimental.setup: 37° C.
Report as a plain number; the unit % is understood.

Below, 4 compounds whose answers are already recorded.
* C=C1CC[C@H]2C(=C)CC[C@H]3C(=C)C(=O)O[C@@H]3[C@@H]12 [dehydrocostus lactone, reference compound] | 57.86
* C=C1C(=O)O[C@@H]2C3=C(C)CC[C@]34C[C@]4(C)CC[C@@H]12 | 95.72
* C=C1C(=O)O[C@@H]2[C@H]3C(C)=CC[C@]34C[C@]4(C)CC[C@@H]12 | 78.26
* C=C1C(=O)O[C@@H]2[C@@H]3[C@]4(CC[C@@]3(C)OC)C[C@]4(C)CC[C@@H]12 | 94.08

stdin: Give its Non-degradation percentage at 24 h value. Item: `C=C1C(=O)O[C@H]2[C@H]1CC[C@@]1(C)C[C@]13C[C@@H](O)[C@@](C)(OC)[C@H]23`
stdout: 97.77

stdin: Let us now turn to `C=C1C(=O)O[C@H]2[C@H]1CC[C@@]1(C)C[C@]13C[C@@H](O)[C@@](C)(O)[C@H]23`
stdout: 96.21

stdin: Also need `C=C1C(=O)O[C@@H]2[C@@H]3[C@]4(CC[C@@]3(C)F)C[C@]4(C)CC[C@@H]12` , thanks.
stdout: 99.84

stdin: Quick one: C=C1C(=O)O[C@@H]2[C@H]3C(C)=CC[C@@]34O[C@@]4(C)CC[C@@H]12 [arglabin, reference compound]
stdout: 43.40

stdin: Check `C=C1C(=O)O[C@@H]2[C@@H]3[C@]4(CC[C@@]3(C)O)C[C@]4(C)CC[C@@H]12` too.
stdout: 98.16

stdin: And `C=C1C(=O)O[C@@H]2[C@@H]3[C@]4(CC[C@@]3(C)OC(=O)CC)C[C@]4(C)CC[C@@H]12` ?
stdout: 97.65
